Here, each record is paired with measured IC50 data.
target: TNFα (Homo sapiens, UniProt P01375); assay: TNF induced HEK-Blue assay (NF-kB-driven secreted alkaline phosphatase reporter); format: cell-based; settings: TNFα 0.5 ng/mL, HEK-Blue-CD40L cells, 18 h; read-out: TNF induced HEK-Blue assay IC50 value
Sequence (P01375 77-233 limits assumed): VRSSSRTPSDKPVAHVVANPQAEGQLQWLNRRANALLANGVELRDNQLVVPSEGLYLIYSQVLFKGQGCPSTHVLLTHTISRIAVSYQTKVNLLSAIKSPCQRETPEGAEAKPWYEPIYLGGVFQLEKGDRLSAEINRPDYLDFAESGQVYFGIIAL

# example entries with known answers
CC(Nc1c(Cl)cnc2ccc(-c3cnc(C(C)(C)O)nc3)cc12)C1(c2ccc(Cl)cc2)CCCC1 (racemic) [Example 142] : 10 to 25 µM
CC(Nc1c(Cl)cnc2ccc(-c3ccc(C(C)(C)O)cc3)cc12)c1ccsc1 (racemic) [Example 196] : < 1 µM

Please look at the following molecule next.
## Task Param readout= IC50; system= TNFα (Homo sapiens, UniProt P01375); entry= CC(=O)NC1CCC(O)(c2ncc(-c3ccc4ncc(Cl)c(N[C@H](C)c5ccccc5F)c4c3)cn2)CC1 (stereo partly drawn) [Example 132] ; returns value.
## Result 1 to 10 µM

====

molecular target: UniProtKB P01375; assay: TNF induced HEK-Blue assay (NF-kB-driven secreted alkaline phosphatase reporter); assay type: cell-based; conditions: TNFα 0.5 ng/mL, HEK-Blue-CD40L cells, 18 h; read-out: TNF induced HEK-Blue assay IC50 value
pIC50: −log10 of the molar value.
endpoint: pIC50

## Task Would you mind telling me what pIC50 value was observed for Cc1nc2ccc(-c3cnc(C(C)(C)O)nc3)cc2c(N[C@H](C)c2cc(-c3nnn[nH]3)ccc2F)c1Cl ?
## Result 4.60 to 5.00

## Task Could you share which pIC50 value was measured for CCN1CCC[C@H]([C@H](C)Nc2c(Cl)cnc3ccc(-c4cnc(C(C)(C)O)nc4)cc23)C1 ?
## Result > 6.00

## Task Fill in: pIC50 of CC(Nc1c(Cl)cnc2cc(F)c(-c3cc(F)c(C(C)(C)O)c(F)c3)cc12)c1ccccc1F (racemic) [Example 267] is ___
## Result > 6.00

## Task Return reported pIC50; argument: CC(C)(O)c1ncc(-c2nc3c(N[C@@H](c4ccccc4F)C(F)F)c(Cl)cnc3cc2F)cn1
## Result > 6.00

## Task Query (compound): Cc1nc2ccc(-c3cnc(C(C)(C)O)nc3)cc2c(N[C@H](C)c2cc(C(N)=O)ccc2F)c1C ; field requested: pIC50
## Result 4.60 to 5.00

## Task Item COc1ncc(-c2ccc(F)c([C@@H](C)Nc3c(Cl)cnc4ccccc34)c2)cc1C#N has what recorded pIC50?
## Result > 6.00

## Task Bench note: what pIC50 did CC(C)(O)c1ncc(-c2cc3c(N[C@@H](c4ccccc4F)C(F)F)c(Cl)cnc3cc2F)cn1 show?
## Result > 6.00

====

Overview of reported pIC50 across a group of compounds:
molecular target: TNFα (Homo sapiens, UniProt P01375); experiment: TNF induced HEK-Blue assay (NF-kB-driven secreted alkaline phosphatase reporter); assay type: cell-based; conditions: TNFα 0.5 ng/mL, HEK-Blue-CD40L cells, 18 h; read-out: TNF induced HEK-Blue assay IC50 value
pIC50: −log10 of the molar value.

Example entries begin here.
C[C@@H](Nc1c(Cl)cnc2cc(F)c(-c3cnc(C(C)(C)O)nc3)nc12)c1cc(C(=O)O)ccc1F : 5.00 to 6.00
Cc1nc2cc(F)c(-c3cnc(C(C)(C)O)nc3)nc2c(N[C@H](C)c2cccc(C#N)c2)c1Cl : > 6.00
C[C@@H](Nc1c(Cl)cnc2ccc(-c3cnc(N4CCOCC4)nc3)cc12)c1ccccc1F : > 6.00
C[C@@H](Nc1c(Cl)cnc2ccc(-c3ccc(N4CCC(CC(=O)O)CC4)nc3)cc12)c1ccccc1F : > 6.00
C=Cc1ccc(F)c([C@H](Nc2c(Cl)cnc3cc(F)c(-c4cnc(C(C)(C)O)nc4)nc23)C(F)F)c1 : > 6.00

## Task Given CC(C)(O)c1ncc(-c2ccc3ncc(Cl)c(NC(c4ccccc4F)C(F)F)c3c2)cn1 (single isomer, unassigned) [Example 55a] , state its recorded pIC50.
## Result > 6.00

## Task Record request: pIC50 value, item COC(=O)CN1CCN(c2ncc(-c3ccc4ncc(Cl)c(N[C@H](C)c5ccccc5F)c4c3)cn2)CC1
## Result > 6.00

## Task Which pIC50 value belongs to CC(Nc1c(Cl)cnc2ccc(-c3cnc(C(C)(C)O)nc3)cc12)c1cc(Cl)ccn1 (racemic) ?
## Result 5.00 to 6.00

====

target: TNFα (Homo sapiens, UniProt P01375); assay: TNF induced HEK-Blue assay (NF-kB-driven secreted alkaline phosphatase reporter); format: cell-based; conditions: TNFα 0.5 ng/mL, HEK-Blue-CD40L cells, 18 h; read-out: TNF induced HEK-Blue assay IC50 value
endpoint: IC50

For orientation, consider the following solved cases.
C=CCc1ccc(F)c([C@@H](C)Nc2c(Cl)cnc3ccccc23)c1 [Example 452] : 1 to 10 µM
Cc1nc2cc(F)c(-c3cnc(C(C)(C)O)nc3)nc2c(N[C@H](C)c2cccc(C(N)=O)c2)c1Cl [Example 580] : < 1 µM
CC(C)(O)c1ncc(-c2ccc3ncc(Cl)c(NCc4ccc(Br)cc4-n4cccn4)c3c2)cn1 [Example 56] : 10 to 25 µM

// next entry
## Task Requested read-out: IC50. Entry: C[C@@H](Nc1c(Cl)cnc2ccc(-c3cnc(C(C)(C)O)nc3)cc12)c1cccc(Br)c1 [Example 319]
## Result < 1 µM

====

target: TNFα (Homo sapiens, UniProt P01375); test: TNF induced HEK-Blue assay (NF-kB-driven secreted alkaline phosphatase reporter); format: cell-based; conditions: TNF induced HEK-Blue assay IC50 value, TNFα 0.5 ng/mL, HEK-Blue-CD40L cells, 18 h
pIC50: −log10 of the molar value.
Each record here notes measured pIC50.

C[C@H](Nc1c(Cl)cnc2cnc(-c3cnc(C(C)(C)O)nc3)cc12)c1ccccc1F (single isomer, unassigned) : 4.60 to 5.00
CCC(Nc1c(Cl)cnc2ccc(-c3cnc(C(C)(C)O)nc3)cc12)c1ccccc1F (racemic) : > 6.00
CC(Nc1c(Cl)cnc2ccc(-c3cnc(C(C)(C)O)nc3)cc12)c1ccccc1C(F)(F)F (racemic) : > 6.00
C[C@@H](Nc1c(Cl)cnc2ccc(-c3ccc(S(C)(=O)=O)nc3)cc12)c1ccccc1F : > 6.00
C[C@@H](Nc1c(Cl)cnc2ccc(-c3cnc(N4CCS(=O)(=O)CC4)nc3)cc12)c1ccccc1F : > 6.00

## Task Query (compound): CCOc1ncc(-c2ccc3ncc(Cl)c(N[C@H](C)c4ccccc4F)c3c2)cn1 ; field requested: pIC50
## Result > 6.00

## Task For CC(Nc1c(Cl)cnc2cc(F)c(-c3cnc(C(C)(C)O)nc3)cc12)c1ccccc1F (stereo not shown) [Example 250] , what is its reported pIC50?
## Result 5.00 to 6.00

====

biological target: TNFα (Homo sapiens, UniProt P01375); assay: TNF induced HEK-Blue assay (NF-kB-driven secreted alkaline phosphatase reporter); type: cell-based; details: TNFα 0.5 ng/mL, HEK-Blue-CD40L cells, 18 h; read-out: TNF induced HEK-Blue assay IC50 value
endpoint: IC50

COc1ncc(-c2ccc(F)c([C@@H](C)Nc3c(Cl)cnc4ccccc34)c2)cn1 : 10 to 25 µM

## Task Quick check: IC50 of CC(Nc1c(Cl)cnc2cc(F)c(-c3ccc(C(O)CN4CCOCC4)cc3)cc12)c1ccccc1F (centres unmarked) [Example 288] ?
## Result 1 to 10 µM

## Task Dear colleague, I am looking for the recorded IC50 of the following molecule: C[C@@H](Nc1c(Cl)cnc2ccc(-c3ccc(C4(NC(N)=O)CCC4)cc3)cc12)c1ccccc1F
## Result 1 to 10 µM

## Task Looking for the measured IC50 of CC(Nc1c(Cl)cnc2ccc(-c3ccc(C(C)(C)O)cc3)cc12)c1cccnc1 (racemic) , can you help?
## Result 10 to 25 µM

## Task Recorded IC50 for C[C@@H](Nc1ccnc2ccc(Br)cc12)c1cc(-c2cncnc2)ccc1F , please?
## Result 10 to 25 µM

## Task Name the reported IC50 value associated with the molecule Cc1nc2cc(F)c(-c3cnc(C(C)(C)O)nc3)nc2c(N[C@@H](c2cc(CO)ccc2F)C(F)F)c1Cl
## Result < 1 µM

## Task Using the record for C[C@@H](Nc1c(Cl)cnc2ccccc12)c1cc(-c2cn[nH]c2)ccc1F , report its IC50.
## Result < 1 µM

## Task Report IC50 for C[C@@H](Nc1c(Cl)cnc2ccccc12)c1cc(-c2cnc(C(C)(C)O)nc2)ccc1F please.
## Result 1 to 10 µM

====

// values below are reported pIC50
target: TNFα (Homo sapiens); experiment: TNF induced HEK-Blue assay (NF-kB-driven secreted alkaline phosphatase reporter); format: cell-based; conditions: TNF induced HEK-Blue assay IC50 value, TNFα 0.5 ng/mL, HEK-Blue-CD40L cells, 18 h
pIC50: −log10 of the molar value.

# count of solved cases: 3
C[C@@H](Nc1c(Cl)cnc2ccc(-c3cnc(C(C)(C)O)nc3)cc12)c1cc(N2CCCC2)ccc1F : > 6.00
CC(Nc1c(Cl)cnc2cc(F)c(-c3cnc(C(C)(C)O)nc3)cc12)c1ccccc1F (single isomer, unassigned) [Example 241] : > 6.00
CC(Nc1c(Cl)cnc2ccc(-c3cnc(C(C)(C)O)nc3)cc12)c1ccccc1F (racemic) : > 6.00

## Task Please look up its pIC50: CC(=O)N1CCC[C@@H](C(C)Nc2c(Cl)cnc3ccc(-c4cnc(C(C)(C)O)nc4)cc23)C1 (single isomer, unassigned)
## Result 5.00 to 6.00

## Task Given C[C@@H](Nc1c(Cl)cnc2ccc(-c3cnc(C(C)(C)O)nc3)cc12)c1cc(C#N)ccc1F , state its recorded pIC50.
## Result > 6.00

## Task Please report the recorded pIC50 for C[C@@H](Nc1c(Cl)cnc2ccc(-c3cnc(N4CCN(CC(N)=O)CC4)nc3)cc12)c1ccccc1F .
## Result > 6.00
